Biological target: bradykinin 1 receptor (B1R) of the rat (Rattus norvegicus, UniProt P97583)
Construct: expressed in transfected cells; host or cells: CHO K1 cells
Sequence (P97583 1-337): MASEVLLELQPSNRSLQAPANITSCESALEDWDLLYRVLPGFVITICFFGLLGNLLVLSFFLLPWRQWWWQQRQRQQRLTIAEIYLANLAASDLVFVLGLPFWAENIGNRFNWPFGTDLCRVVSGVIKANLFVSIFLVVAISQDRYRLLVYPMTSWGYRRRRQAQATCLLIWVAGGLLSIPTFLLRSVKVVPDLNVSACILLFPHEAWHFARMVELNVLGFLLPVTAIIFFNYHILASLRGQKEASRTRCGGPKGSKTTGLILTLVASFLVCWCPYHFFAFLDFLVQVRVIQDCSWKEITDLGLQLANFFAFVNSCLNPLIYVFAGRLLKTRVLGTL
Test: Functional investigation on the rat bradykinin 1 receptor (B1R), Ca2+ FLIPR assay in CHO K1 rB1R cells
Type: cell-based
Conditions: CHO-K1, B1R antagonism rat; test substance 10 μM; Ca2+ FLIPR, CHO K1 rB1R cells; read-out: B1R Ant. r [10 μM] % Inhibition
observation.type: inhibition at 10 µM (%)

* COc1cc(C)c(S(=O)(=O)N2CCC(OCC(=O)NC3CCC(C(c4cccs4)N(C)C)CC3)C2)c(C)c1C (stereo not shown) [Example 43] | 21
* COc1cc(C)c(S(=O)(=O)N2CCCC2COCC(=O)NCC2CCC(C(c3ccccc3)N3CCOCC3)CC2)c(C)c1 (stereo not shown) [Example 709] | 104
* Cc1cc(C)c(S(=O)(=O)N(C)CCOCC(=O)NCC2CCC(C(c3cccs3)N(C)C)CC2)c(C)c1 (stereo not shown) [Example 57] | 35
* CN(CCOCC(=O)NCC1CCC(C(c2ccccc2)N2CCCC2)CC1)S(=O)(=O)c1c(Cl)cc(Cl)cc1Cl (stereo not shown) [Example 626] | 47
* O=C(COC1CCN(S(=O)(=O)c2c(Cl)cc(Cl)cc2Cl)C1)NCC1CCC(C(c2ccccc2)N2CCCC2)CC1 (stereo not shown) [Example 644] | 52
* CN(C)C(CCc1ccccc1)C1CCC(NC(=O)CNC(=O)c2nc(-c3ccc4c(c3)OCO4)no2)CC1 (stereo not shown) [Example 783] | -28
* CN(C)C(c1ccccc1)C1CCC(NC(=O)COC2CCCCC2N(C)S(=O)(=O)c2ccc(Cl)c(Cl)c2)CC1 (stereo not shown) [Example 39] | -8
* COc1cc(C)c(S(=O)(=O)N2CCCCC2COCC(=O)NC2CCC(C(c3ccccc3)N3CCCC3)CC2)c(C)c1 (stereo not shown) [Example 652] | 105
* COc1ccc(S(=O)(=O)N2CCCCC2COCC(=O)NCCC2CCC(C(c3cccs3)N(C)C)CC2)cc1OC (stereo not shown) [Example 120] | -14
* CN(C)C(c1ccccc1)C1CCC(CNC(=O)COCCN(C)S(=O)(=O)c2c(Cl)cc(Cl)cc2Cl)CC1 (stereo not shown) [Example 14] | 40
* CN(C)C(c1cccs1)C1CCC(CNC(=O)COCCN(C)S(=O)(=O)c2ccc(OC(F)(F)F)cc2)CC1 (stereo not shown) [Example 93] | 6
* COc1cc(C)c(S(=O)(=O)N(C)CCOCC(=O)NCC2CCC(C(c3ccccc3)N3CCOCC3)CC2)c(C)c1 (stereo not shown) [Example 718] | 96
* CN(C)C(c1cccc(F)c1)C1CCC(CNC(=O)COC2CCN(S(=O)(=O)c3cccc(C(F)(F)F)c3)C2)CC1 (stereo not shown) [Example 170] | 38
* COc1cc(C)c(S(=O)(=O)N(C)CCOCC(=O)NC2CCC(C(c3ccccc3)N3CCCC3)CC2)c(C)c1C (stereo not shown) [Example 618] | 3
* COc1ccc(S(=O)(=O)N2CCC(OCC(=O)NC3CCC(C(c4cccs4)N(C)C)CC3)C2)cc1OC (stereo not shown) [Example 155] | 1
* CN(C)C(c1cccs1)C1CCC(NC(=O)CNC(=O)c2nc(-c3ccc(C(C)(C)C)cc3)no2)CC1 (stereo not shown) [Example 779] | -13

====

Biological target: human bradykinin 1 receptor (B1R) (Homo sapiens)
Construct: expressed in transfected cells; host or cells: CHO K1 cells
Sequence (P46663 whole entry): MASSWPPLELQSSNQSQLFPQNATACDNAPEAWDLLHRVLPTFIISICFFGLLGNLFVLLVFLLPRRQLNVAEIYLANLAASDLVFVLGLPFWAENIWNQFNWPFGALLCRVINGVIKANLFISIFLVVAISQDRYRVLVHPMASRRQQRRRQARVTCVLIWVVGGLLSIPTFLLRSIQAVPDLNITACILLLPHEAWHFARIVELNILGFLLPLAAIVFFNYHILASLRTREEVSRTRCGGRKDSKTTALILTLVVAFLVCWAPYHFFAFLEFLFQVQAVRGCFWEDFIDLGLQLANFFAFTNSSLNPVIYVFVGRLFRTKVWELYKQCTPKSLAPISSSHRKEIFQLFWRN
Test: Functional investigation on the human bradykinin 1 receptor (B1R), Ca2+ FLIPR assay in CHO K1 hB1R cells
Assay type: cell-based
Conditions: CHO-K1, B1R antagonism human; test substance 10 μM; Ca2+ FLIPR, CHO K1 hB1R cells; read-out: B1R Ant. h [10 μM] % Inhibition
observation.type: inhibition at 10 µM (%)

- COc1cc(C)c(S(=O)(=O)N2CCC(CCOCC(=O)NCC3CCC(C(c4ccccc4)N(C)C)CC3)CC2)c(C)c1C (stereo not shown): 23
- COc1cc(C)c(S(=O)(=O)N2CCCC(OCC(=O)NCC3CCC(C(c4ccccc4)N4CCOCC4)CC3)C2)c(C)c1 (stereo not shown): 46
- CN(CCOCC(=O)NCC1CCC(C(CCc2ccccc2)N2CCOCC2)CC1)S(=O)(=O)c1c(Cl)cc(C(F)(F)F)cc1Cl (stereo not shown): -9
- COc1ccccc1-c1noc(C(=O)NCC(=O)NC2CCC(C(c3ccccc3)N(C)C)CC2)n1 (stereo not shown): -10

====

Molecular target: bradykinin 1 receptor (B1R) of the rat (Rattus norvegicus)
Construct: expressed in transfected cells; host or cells: CHO K1 cells
Assay: Functional investigation on the rat bradykinin 1 receptor (B1R), Ca2+ FLIPR assay in CHO K1 rB1R cells
Assay type: cell-based
Conditions: B1R antagonism rat; test substance 10 μM; Ca2+ FLIPR, CHO K1 rB1R cells
Description: Functional Investigation on the Human Bradykinin 1 Receptor (B1R) The agonistic or antagonistic action of substances can be determined on the bradykinin 1 receptor (B1R) of the human species and rats with the following assay. In accordance with this assay, the Ca^2+ inflow through the channel is quantified with the aid of a Ca^2=-sensitive dyestuff (type Fluo-4, Molecular Probes Europe BV, Leiden, Holland) in a fluorescent imaging plate reader (FLIPR, Molecular Devices, Sunnyvale, USA). […]
observation.type: B1R Ant. r [10 μM] % Inhibition (%)

• CN(C)C(c1cccc(F)c1)C1CCC(NC(=O)COCC2CCCN2S(=O)(=O)c2ccc(Cl)c(Cl)c2)CC1 (stereo not shown) = 10
• CN(C)C(c1cccc(F)c1)C1CCC(CCNC(=O)COC2CCN(S(=O)(=O)c3ccccc3)CC2)CC1 (stereo not shown) = −5
• CN(C)C(c1cccc(F)c1)C1CCC(CNC(=O)COCCN2CCN(S(=O)(=O)c3ccccc3)CC2)CC1 (stereo not shown) = 17
• CN(C)C(c1ccccc1)C1CCC(NC(=O)COCC2CCCN2S(=O)(=O)c2c(Cl)cc(Cl)cc2Cl)CC1 (stereo not shown) [Example 612] = 64
• COc1ccc(S(=O)(=O)N2CCCCC2COCC(=O)NCCC2CCC(C(c3ccc(Cl)cc3)N(C)C)CC2)cc1 (stereo not shown) = 64
• CN(C)C(c1ccc(Cl)cc1)C1CCC(CNC(=O)COCCN(C)S(=O)(=O)c2c(Cl)cc(Cl)cc2Cl)CC1 (stereo not shown) = 3
• COc1ccc(S(=O)(=O)N2CCCCC2COCC(=O)NCC2CCC(C(c3ccc(F)cc3)N(C)C)CC2)cc1OC (single isomer, unassigned) [Example 537] = 8

====

Biological target: human bradykinin 1 receptor (B1R) (Homo sapiens)
Construct: expressed in transfected cells; host or cells: CHO K1 cells
Experiment: Functional investigation on the human bradykinin 1 receptor (B1R), Ca2+ FLIPR assay in CHO K1 hB1R cells
Assay type: cell-based
Conditions: CHO-K1, B1R antagonism human; test substance 10 μM; Ca2+ FLIPR, CHO K1 hB1R cells; read-out: B1R Ant. h [10 μM] % Inhibition
Overview of reported inhibition at 10 µM across a group of compounds:
observation.type: inhibition at 10 µM (%)

* COc1ccc(S(=O)(=O)N2CCC(OCC(=O)NC3CCC(C(c4cccs4)N(C)C)CC3)C2)cc1OC (centres unmarked) [Example 155] | -8
* COc1cc(C)c(S(=O)(=O)N(C)CCOCC(=O)NC2CCC(C(c3cccs3)N(C)C)CC2)c(C)c1 (centres unmarked) [Example 111] | 102
* CN(C)C(c1cccs1)C1CCC(CNC(=O)COC2CCCCC2N(C)S(=O)(=O)c2ccc(Cl)c(Cl)c2)CC1 (centres unmarked) [Example 31] | 10
* COc1cc(C)c(S(=O)(=O)N2CCC(OCC(=O)NCC3CCC(C(CCc4ccccc4)N4CCOCC4)CC3)C2)c(C)c1 (centres unmarked) [Example 725] | 96
* CN(C)C(c1cccs1)C1CCC(NC(=O)COCCN(C)S(=O)(=O)c2ccc(F)cc2)CC1 (centres unmarked) [Example 10] | -17
* O=C(COC1CCCN(S(=O)(=O)c2c(Cl)cc(Cl)cc2Cl)C1)NC1CCC(C(CCc2ccccc2)N2CCCCC2)CC1 (centres unmarked) [Example 673] | 57
* COc1cc(C)c(S(=O)(=O)N(C)CCOCC(=O)NCC2CCC(C(c3cccc(F)c3)N(C)C)CC2)c(C)c1C (centres unmarked) [Example 160] | 98
* O=C(COCCN(C1CC1)S(=O)(=O)c1c(Cl)cc(Cl)cc1Cl)NC1CCC(C(c2ccccc2)N2CCCCC2)CC1 (centres unmarked) [Example 602] | 81
* COc1cc(C)c(S(=O)(=O)N2CCCC(COCC(=O)NC3CCC(C(c4ccccc4)N4CCCC4)CC3)C2)c(C)c1 (centres unmarked) [Example 654] | 80
* COc1cc(C)c(S(=O)(=O)N2CCCCC2COCC(=O)NCC2CCC(C(c3ccccc3)N3CCCC3)CC2)c(C)c1 (centres unmarked) [Example 657] | 104
* CN(C)C(c1cccs1)C1CCC(CNC(=O)COC2CCN(S(=O)(=O)c3ccc(F)cc3)C2)CC1 (centres unmarked) [Example 97] | 1
* O=C(COCC1CCCCN1S(=O)(=O)c1c(Cl)cc(Cl)cc1Cl)NCC1CCC(C(c2ccccc2)N2CCCC2)CC1 (centres unmarked) [Example 658] | 104
* COc1cc(C)c(S(=O)(=O)N2CCCC(COCC(=O)NC3CCC(C(c4ccccc4)N4CCN(C)CC4)CC3)C2)c(C)c1 (centres unmarked) [Example 702] | 70
* O=C(COC1CCN(S(=O)(=O)c2c(Cl)cc(Cl)cc2Cl)C1)NCC1CCC(C(CCc2ccccc2)N2CCOCC2)CC1 (centres unmarked) [Example 745] | 45
